test: collision cross section in nitrogen (drift tube, single-field); higher = larger gas-phase ion size; details: ion type: [M+Na]; ion source: ESI; ion mode: Positive;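 note: chemical standards at 10 µM analysed by drift tube IMS-QTOF MS in about 3.95 torr nitrogen, mean of duplicate injections differing ≤1%, mass error below 10 ppm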
Assay metric: collision cross section in nitrogen (Å²)
Please state the figure in Å²; there is no need to write the unit.

Sample records with collision cross section in nitrogen:
{"Compound": "CC1=NN(c2cccc(S(=O)(=O)O)c2)C(=O)C1", "Data value": 161.9}
{"Compound": "CC(C)COC(=O)c1ccccc1C(=O)OCC(C)C [Diisobutyl phthalate]", "Data value": 181.8}

// query For CCC(CC)Nc1ccc(C)c(C)c1 [N-(1-Ethylpropyl)-3,4-xylidine] , what is its reported collision cross section in nitrogen?
// result 151.1

// query For CCOc1ccc(C(C)(C)COCc2cccc(Oc3ccccc3)c2)cc1 [Etofenprox] , what is its reported collision cross section in nitrogen?
// result 191

// query For Cc1c(C(=O)c2cnn(C)c2O)ccc(S(C)(=O)=O)c1C1=NOCC1 [Topramezone] , what is its reported collision cross section in nitrogen?
// result 181.1

// query For c1cc(N(CC2CO2)CC2CO2)ccc1OCC1CO1 (centres undefined) [4-(Diglycidylamino)phenyl glycidyl ether] , what is its reported collision cross section in nitrogen?
// result 161.7

// query For CCOP(=S)(OCC)SCCS(=O)(=O)CC [Disulfoton sulfone] , what is its reported collision cross section in nitrogen?
// result 166

// query For COC(=O)C(C)N(C(=O)c1ccco1)c1c(C)cccc1C (centres undefined) [Furalaxyl] , what is its reported collision cross section in nitrogen?
// result 178

// query For CC(C)(C)c1ccc(OC2CCCCC2O)cc1 (centres undefined) [2-(4-tert-Butylphenoxy)cyclohexanol] , what is its reported collision cross section in nitrogen?
// result 179.8

Data origin: the supplement of paper PMC12317010
